meta.source: patent US20080207614A1

AMPK activity (degree of phosphorylation of serine-79 and threonine-172) for assorted molecules
- System: AMPK
- assayNotes: Measurement of AMPK activity by Western blot in C2C12 cells
- Type: cell-based
- Parameters: key: fold increase in threonine-172 phosphorylation
- conditionContext: 10 μM for 50 minutes, no superscript: Western blot of serine-79 and threonine-172 phosphorylation
readoutName: AMPK activity (degree of phosphorylation of serine-79 and threonine-172)

INSERT INTO measurements (smilesrepresentation, reportedmeasurement) VALUES
  ('FCCNc1nc(-c2ccccc2)nc2ccccc12', 2.0),
  ('c1ccc(CCCCNc2nc(-c3ccccn3)nc3ccccc23)cc1', 7.9),
  ('COc1ccccc1CNc1nc(-c2cccs2)nc2ccccc12', 2.1),
  ('CN1CCN(c2nc(NCc3ccc4c(c3)OCO4)c3ccccc3n2)CC1', 1.6),
  ('c1ccc(-c2nc(NCc3cccnc3)c3ccccc3n2)cc1', 1.8);

====

- System: AMPK
- assayNotes: Measurement of AMPK activity by Western blot in C2C12 cells
- Assay type: cell-based
- Set-up: key: fold increase in threonine-172 phosphorylation
- conditionContext: 10 μM for 50 minutes, no superscript: Western blot of serine-79 and threonine-172 phosphorylation
// AMPK activity (degree of phosphorylation of serine-79 and threonine-172) lookup, one value per entry
readoutName: AMPK activity (degree of phosphorylation of serine-79 and threonine-172)

INSERT INTO measurements (compound, reportedmeasurement) VALUES
  ('COc1cc(OC)c(CNc2nc(C(C)c3ccccc3)nc3ccccc23)c(OC)c1 (stereo not drawn)', 4.0),
  ('CCC(CC)Nc1nc(-c2ccccc2)nc2ccccc12', 2.2),
  ('COc1ccc(CNc2nc(C3CC3)nc3ccccc23)cc1OC', 2.8),
  ('Clc1ccc(CCNc2nc(-c3ccccc3)nc3ccccc23)cc1', 2.3),
  ('COc1cc(CNc2nc(N3CCCCC3)nc3ccccc23)cc(OC)c1', 1.4),
  ('COc1cc(OC)c(CNc2nc(N3CCCC3)nc3ccccc23)c(OC)c1', 0.4),
  ('COc1ccc(OC)c(CNc2nc(C3CC3)nc3ccccc23)c1', 7.1),
  ('CCCc1nc(NCc2cccc(OC)c2)c2ccccc2n1', 4.5),
  ('COc1cccc(CNc2nc(N3CCOCC3)nc3ccccc23)c1OC', 1.5),
  ('COc1cccc(CNc2nc(N3CCCCC3)nc3ccccc23)c1OC', 1.7),
  ('COc1ccc(CNc2ncnc3ccccc23)c(OC)c1', 8.4),
  ('COc1cccc(CNc2nc(C3CC3)nc3ccccc23)c1', 2.2),
  ('COc1ccccc1CNc1nc(C2CC2)nc2ccccc12', 2.2),
  ('COc1ccc(OC)c(CNc2nc(C(OC)c3ccccc3)nc3ccccc23)c1 (stereo not drawn)', 4.5),
  ('COc1cc(OC)c(CNc2nc(C3CC3)nc3ccccc23)c(OC)c1', 2.7),
  ('Brc1ccc(CCNc2nc(-c3ccccc3)nc3ccccc23)cc1', 3.1),
  ('COc1ccccc1CNc1ncnc2ccccc12', 1.9),
  ('CC(C)(C)c1nc(NCCc2ccccc2)c2ccccc2n1', 5.2),
  ('COc1ccccc1CNc1nc(C(C)c2ccccc2)nc2ccccc12 (stereo not drawn)', 2.8),
  ('COc1cc(CNc2nc(Cc3ccccc3)nc3ccccc23)cc(OC)c1', 1.7),
  ('c1csc(-c2nc(NCc3ccc4c(c3)OCO4)c3ccccc3n2)c1', 0.5),
  ('COc1ccc(CNc2nc(N3CCN(C)CC3)nc3ccccc23)c(OC)c1', 0.4),
  ('COc1cccc(CNc2ncnc3ccccc23)c1', 2.7),
  ('COc1ccc(CNc2nc(N3CCOCC3)nc3ccccc23)c(OC)c1', 0.1),
  ('COc1cc(CNc2ncnc3ccccc23)cc(OC)c1OC', 1.8),
  ('COc1cc(OC)c(CNc2nc(-c3cccs3)nc3ccccc23)c(OC)c1', 0.9),
  ('CC1CCCC(Nc2nc(-c3ccccc3)nc3ccccc23)C1C (stereo not drawn)', 2.4);

====

Measured AMPK activity (degree of phosphorylation of serine-79 and threonine-172) values are reported for all entries that follow.
- Tested on: AMPK
- assayNotes: Measurement of AMPK activity by Western blot in C2C12 cells
- Type: cell-based
- Set-up: key: fold increase in threonine-172 phosphorylation
- conditionContext: 10 μM for 50 minutes, no superscript: Western blot of serine-79 and threonine-172 phosphorylation
readoutName: AMPK activity (degree of phosphorylation of serine-79 and threonine-172)

INSERT INTO measurements (smilesrepresentation, reportedmeasurement) VALUES
  ('Clc1ccc(CNc2nc(-c3ccccc3)nc3ccccc23)c(Cl)c1', 2.2),
  ('CC(C)(C)c1nc(NCCc2cccc(F)c2)c2ccccc2n1', 4.8),
  ('CC(C)c1nc(NCCc2ccccc2)c2ccccc2n1', 3.8),
  ('COc1cc(CNc2nc(N3CCCC3)nc3ccccc23)cc(OC)c1OC', 0.2),
  ('Fc1ccc(CCNc2nc(-c3ccccc3)nc3ccccc23)cc1F', 1.7),
  ('COc1ccc(CNc2nc(C(C)C)nc3ccccc23)c(OC)c1', 2.4),
  ('COc1ccccc1CNc1nc(C(C)C)nc2ccccc12', 0.9);
